# Test system: West Nile virus
# methodDescription: Inhibition of West Nile virus NS2B-NS3 protease at 60 uM using Mca-KKR-GDap(DNP)AK-NH2 as substrate measured every 30 secs for 20 mins by FRET assay
measurementLabel: inhibition
Show the value, then the unit it is measured in.

Below are worked cases with known answers.
CCOC(=O)Nc1ccc2c(c1)c(Cc1ccc(C(=O)NS(=O)(=O)c3ccccc3C)cc1OC)cn2C :: 12%
COC(=O)c1ccc(Cc2cn(C)c3ccc(NC(=O)OC4CCCC4)cc23)c(OC)c1 :: 12%

Now consider the entry below.
Request: Report inhibition on West Nile virus for this entry: `COc1cc(C(=O)NS(=O)(=O)c2ccccc2)ccc1Cc1cn(C)c2ccc(NC(=O)OC3CCCC3)cc12`
Response: 81%

* * *

# methodDescription: Inhibition of West Nile virus NS2B-NS3 protease using Mca-KKR-GDap(DNP)AK-NH2 as substrate measured every 30 secs for 20 mins by FRET assay
measurementLabel: IC50 (µM)
Give the number; µM is assumed, so skip it.

COc1cc(C(=O)NS(=O)(=O)c2ccccc2C)ccc1Cc1cn(C)c2ccc(NC(=O)OC3CCCC3)cc12 :: 32

Request: Determine from records and report IC50 for `COc1cc(C(=O)NS(=O)(=O)c2ccccc2C)ccc1Cc1cn(C)c2ccc(NC(=O)Oc3ccccc3)cc12`
Response: 22

* * *

# Test system: West Nile virus
# methodDescription: Inhibition of West Nile virus NS2B-NS3 protease at 60 uM using Mca-KKR-GDap(DNP)AK-NH2 as substrate measured every 30 secs for 20 mins by FRET assay
Below: a set of entries, each annotated with reported inhibition.
Give the number; % is assumed, so skip it.

COc1cc(C(=O)NS(=O)(=O)c2ccccc2C)ccc1Cc1cn(C)c2ccc(NC(=O)CC3CCCC3)cc12 :: 33

Request: Determine from records and report inhibition for `COc1cc(C(=O)NS(=O)(=O)c2ccccc2C)ccc1Cn1ccc2cc(NC(=O)OC3CCCC3)ccc21`
Response: 79

Request: Determine from records and report inhibition for `COc1cc(C(=O)NS(=O)(=O)c2ccccc2C)ccc1Cc1cn(C)c2ccc(NC(=O)Oc3ccccc3)cc12`
Response: 92

Request: Determine from records and report inhibition for `Cn1ccc2cc(NC(=O)OC3CCCC3)ccc21`
Response: 6

Request: Determine from records and report inhibition for `Cc1ccccc1S(=O)(=O)NC(=O)c1ccc(NC(=O)OC2CCCC2)cc1`
Response: 4

Request: Determine from records and report inhibition for `COc1cc(C(=O)NCc2ccccc2)ccc1Cc1cn(C)c2ccc(NC(=O)OC3CCCC3)cc12`
Response: 5

Request: Determine from records and report inhibition for `COC(=O)c1ccc(Cn2ccc3cc(NC(=O)OC4CCCC4)ccc32)c(OC)c1`
Response: 5

Request: Determine from records and report inhibition for `Cc1ccccc1S(=O)(=O)NC(=O)c1ccc(Cc2cn(C)c3ccc(NC(=O)OC4CCCC4)cc23)cc1`
Response: 64

Request: Determine from records and report inhibition for `COc1cc(C(=O)NS(=O)(=O)c2ccccc2C)ccc1Cc1cccc(NC(=O)OC2CCCC2)c1`
Response: 30
